- target system: 5-hydroxytryptamine receptor 1A (Rattus norvegicus)
- test: Percent increase of R(+)-8-OH-DPAT stimulated [35S]GTP-gamma-S, binding to 5-hydroxytryptamine 1A receptor in isolated rat hippocampal membranes
- Assay type: functional, cell membranes
- reported conditions: Membrane
The compounds listed here are annotated with their Increase.
measurement type: Increase (%)

>>> print(df.to_string())
                                   compound  numeric_result
0  CCCN(CCC)C1CCc2cccc(O)c2C1 (stereo not drawn)            91.8
1  OC(CCN1CCN(c2cccc3[nH]ccc23)CC1)c1csc2ccccc12 (stereo not drawn)            26.3
2  OC(CCN1CCN(c2cccc3c2OCCCO3)CC1)c1csc2ccc(F)cc12 (stereo not drawn)            22.8
3  OC(CCN1CCN(c2cccc3c2OCCO3)CC1)c1csc2ccccc12 (stereo not drawn)             3.4
4  OC(CCN1CCN(c2cccc3cccnc23)CC1)c1csc2ccc(F)cc12 (stereo not drawn)            71.4
5  OC(CCN1CCN(c2cccc3c2OCCO3)CC1)c1csc2ccc(F)cc12 (stereo not drawn)            17.9
6  OC(CCN1CCN(c2cccc3cccnc23)CC1)c1csc2ccccc12 (stereo not drawn)              31
7  OC(CCN1CCN(c2cccc3[nH]ccc23)CC1)c1csc2ccc(F)cc12 (stereo not drawn)            35.5

---

- target system: 5-hydroxytryptamine receptor 1A (Mus musculus) (UniProt Q64264)
- Sequence (Q64264 whole entry): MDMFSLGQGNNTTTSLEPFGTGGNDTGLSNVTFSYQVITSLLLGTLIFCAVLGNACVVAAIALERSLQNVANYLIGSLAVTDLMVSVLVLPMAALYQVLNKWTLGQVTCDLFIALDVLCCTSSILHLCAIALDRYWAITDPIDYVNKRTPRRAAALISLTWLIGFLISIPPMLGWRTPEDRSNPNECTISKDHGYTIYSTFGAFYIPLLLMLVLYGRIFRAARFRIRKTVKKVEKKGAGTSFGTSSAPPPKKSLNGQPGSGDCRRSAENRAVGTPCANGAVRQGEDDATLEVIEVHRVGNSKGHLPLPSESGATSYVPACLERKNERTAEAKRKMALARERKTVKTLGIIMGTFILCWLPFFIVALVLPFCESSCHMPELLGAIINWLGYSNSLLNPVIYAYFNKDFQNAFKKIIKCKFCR
- test: Antagonist activity at 5-hydroxytryptamine 1A receptor against (+)-8-OH-DPAT induced hypothermia in mice at 10 mg/kg after 30 min
- Format: functional, organism-based
- Design: dose 10 mg/kg
Param label: returns 1 when Change in body temperature < -0.7 °C, returns -1 otherwise, including exact equality.

In [3]: df
Out[3]:
                                   compound  assigned_label
0  OC(CCN1CCN(c2cccc3[nH]ccc23)CC1)c1csc2ccc(F)cc12 (stereo not given)               1
1  OC(CCN1CCN(c2cccc3c2OCCO3)CC1)c1csc2ccccc12 (stereo not given)               1
2  OC(CCN1CCN(c2cccc3cccnc23)CC1)c1csc2ccccc12 (stereo not given)              -1
3  OC(CCN1CCN(c2cccc3[nH]ccc23)CC1)c1csc2ccccc12 (stereo not given)              -1

---

- target system: 5-hydroxytryptamine receptor 1A (Rattus norvegicus) (UniProt P19327)
- Sequence (P19327 whole entry): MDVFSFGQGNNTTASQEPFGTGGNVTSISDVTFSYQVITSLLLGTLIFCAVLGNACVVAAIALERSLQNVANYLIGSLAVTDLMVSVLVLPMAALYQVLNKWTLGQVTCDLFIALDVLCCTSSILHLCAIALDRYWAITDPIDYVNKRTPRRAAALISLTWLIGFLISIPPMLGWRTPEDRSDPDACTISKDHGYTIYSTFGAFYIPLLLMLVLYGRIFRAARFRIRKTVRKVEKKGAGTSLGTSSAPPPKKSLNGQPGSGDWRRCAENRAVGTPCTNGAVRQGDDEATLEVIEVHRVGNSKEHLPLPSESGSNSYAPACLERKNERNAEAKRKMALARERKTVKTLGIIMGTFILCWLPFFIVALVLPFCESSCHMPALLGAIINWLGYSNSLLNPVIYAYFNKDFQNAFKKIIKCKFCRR
- test: Inhibition of (+)-8-OH-DPAT stimulated [35S]GTP-gamma-S, binding in rat hippocampal membranes
- Type: functional, cell membranes
- reported conditions: Hippocampus, Membrane, scale: (fM of GTP-gammaS bound)
# binarize Max: threshold 20 inclusive, high side 1, low side -1

                                   molecule  assigned_label
0  CCCN(CCC)C1CCc2cccc(O)c2C1 (configuration not stated)               1
1  OC(CCN1CCN(c2cccc3[nH]ccc23)CC1)c1csc2ccc(F)cc12 (configuration not stated)              -1
2  OC(CCN1CCN(c2cccc3c2OCCO3)CC1)c1csc2ccccc12 (configuration not stated)              -1
3  OC(CCN1CCN(c2cccc3[nH]ccc23)CC1)c1csc2ccccc12 (configuration not stated)              -1
4  OC(CCN1CCN(c2cccc3c2OCCO3)CC1)c1csc2ccc(F)cc12 (configuration not stated)              -1
